- System: OVCAR-3
- Test Name: NCI tumour cell line growth inhibition, 48 h
Activity calls are given as the source filed them. Cut-off read from the data, not from the text of the source: active = GI50 up to about 1.1 µM and inactive = higher.
Outcome codes: active, inactive

compound=CCN=C=NCCCN(C)C target_or_system=OVCAR-3 assigned_category=inactive
compound=O=c1cc(NNc2cccc(F)c2)[nH]c(=O)[nH]1 target_or_system=OVCAR-3 assigned_category=inactive
compound="CC(=O)O[C@H]1CC[C@]2(C=O)[C@H]3CC[C@]4(C)[C@@H](C5=CC(=O)OC5)CC[C@]4(O)[C@@H]3CC[C@]2(O)C1 [STROPHANTHIDIN ACETATE]" target_or_system=OVCAR-3 assigned_category=active
compound=CC(C)(C)CC(C)(C)N/C(N)=N/O target_or_system=OVCAR-3 assigned_category=inactive
compound=COc1ccc(-c2c3c(nc4nc(SC)nc(SC)c24)CCCC3)cc1OC target_or_system=OVCAR-3 assigned_category=inactive
compound=COc1ccc(/C=C/c2ccnc3ccccc23)cc1 target_or_system=OVCAR-3 assigned_category=inactive
compound="C=C(C)[C@@H]1CC[C@]2(COC(C)=O)CC[C@]3(C)[C@H](CC[C@@H]4[C@@]5(C)CC[C@H](OC(C)=O)C(C)(C)[C@@H]5CC[C@]43C)[C@@H]12 [BETULIN DIACETATE]" target_or_system=OVCAR-3 assigned_category=inactive
compound=Cn1c(COC(=O)NC2CCCCC2)c(COC(=O)NC2CCCCC2)c2ccc3cc(C=O)ccc3c21 target_or_system=OVCAR-3 assigned_category=inactive
compound=Cc1cc2nc(N3C(=O)/C(=C/c4cccc([N+](=O)[O-])c4)N=C3c3ccccc3)sc2cc1C target_or_system=OVCAR-3 assigned_category=inactive
compound="O=C1CSC(C(/N=N/c2ccc(Cl)cc2)c2nc3ccccc3[nH]2)=N1 (stereo not given)" target_or_system=OVCAR-3 assigned_category=inactive
compound="C=CC(O)(CBr)CCC(Br)C(C)(C)Cl (stereo not given)" target_or_system=OVCAR-3 assigned_category=inactive
compound="Clc1ccc(C2c3ccccc3-c3nc4ccccc4n32)cc1 (stereo not given)" target_or_system=OVCAR-3 assigned_category=inactive
compound=CCc1nnc2sc(-c3ccc(-c4ccccc4[N+](=O)[O-])o3)nn12 target_or_system=OVCAR-3 assigned_category=inactive
compound=CCOc1ccc2c(ccc(/C=C/c3cc(C)c4cccnc4c3O)[n+]2C)c1 target_or_system=OVCAR-3 assigned_category=active
compound=CCc1n[nH]c(=O)n1NC(=O)/C=C\C(=O)O target_or_system=OVCAR-3 assigned_category=inactive
compound=N#Cc1cnn2c1n[n+]([O-])c1ccc(Cl)cc12 target_or_system=OVCAR-3 assigned_category=inactive
compound="Cc1ccccc1C(C#N)C(=O)C(=O)Nc1nc([N+](=O)[O-])cs1 (stereo not given)" target_or_system=OVCAR-3 assigned_category=inactive
compound="COc1cc(COC(=O)N2CSCC2C(=O)O)c([N+](=O)[O-])cc1OC (stereo not given)" target_or_system=OVCAR-3 assigned_category=inactive
compound="O=NN1C(c2ccccc2)CNC(=O)CC1c1ccccc1 (stereo not given)" target_or_system=OVCAR-3 assigned_category=inactive
compound="CSc1nc2c(nc(N)n2C2OC(CO)C(O)C(O)C2O)c(=O)[nH]1 (stereo not given)" target_or_system=OVCAR-3 assigned_category=inactive
compound="Cc1ccc(S(=O)(=O)OC2CN3CCC2CC3)cc1 (stereo not given)" target_or_system=OVCAR-3 assigned_category=inactive
compound=CC(C)CNC(=O)c1c(NC(=O)c2ccccc2)sc2[nH]c(=O)n(-c3ccccc3)c(=O)c12 target_or_system=OVCAR-3 assigned_category=inactive
compound=O=C(Cc1ccccc1)NN1C(=O)/C(=C\c2cccc(O)c2)S/C1=N\c1ccccc1 target_or_system=OVCAR-3 assigned_category=inactive
compound=CS(=O)(=O)OCCN(CCOS(C)(=O)=O)c1ccc(/C=N/c2ccc3oc(=O)ccc3c2)cc1 target_or_system=OVCAR-3 assigned_category=inactive
compound=Cc1ccc2c(=O)cc(Cc3csc4ccccc34)[nH]c2n1 target_or_system=OVCAR-3 assigned_category=inactive
compound=CSc1scc2c1/C(=N/NC(N)=O)CCC2 target_or_system=OVCAR-3 assigned_category=inactive
compound="CC12O[C@]3([C@H](C(=O)N4CCOC43C)[C@H]1Cl)[C@H]1O[C@H]12 (stereo not given in full)" target_or_system=OVCAR-3 assigned_category=inactive
compound="CC(=O)OCC1OC(n2c(-c3ccc(C)cc3)cc(-c3ccccc3)c(C#N)c2=S)C(OC(C)=O)C(OC(C)=O)C1OC(C)=O (stereo not given)" target_or_system=OVCAR-3 assigned_category=inactive
compound=CCc1c(C#N)c(=O)[nH]c(=O)n1CCN1CCN(C(=O)NCCCCCCNC(=O)N2CCN(CCn3c(CC)c(C#N)c(=O)[nH]c3=O)CC2)CC1 target_or_system=OVCAR-3 assigned_category=inactive
compound="CC1=CCCC(OC(N)=O)C1 (stereo not given)" target_or_system=OVCAR-3 assigned_category=inactive
compound=CCCc1c[nH]c(-c2ccc(-c3cc(CCC)c(C=O)[nH]3)s2)c1 target_or_system=OVCAR-3 assigned_category=inactive
compound=CCOC(=O)/C(=C\c1ccc(CO)o1)P(=O)(OCC)OCC target_or_system=OVCAR-3 assigned_category=inactive
compound="CN(C)CC1CCC/C(=C\\c2ccc(OC(=O)/C=C/c3ccc(Cl)c(Cl)c3)cc2)C1=O (stereo not given)" target_or_system=OVCAR-3 assigned_category=inactive
compound=NC12CC3CC4C1CC1CC2C(C3)C4(N)C1 target_or_system=OVCAR-3 assigned_category=inactive
compound="COC(=O)/C=C1\\C(CO[Si](C)(C)C(C)(C)C)OC(n2ccc(=O)[nH]c2=O)C1O (stereo not given)" target_or_system=OVCAR-3 assigned_category=inactive

----------
- System: RPMI-8226
- Test Name: NCI tumour cell line growth inhibition, 48 h
Calls of active or inactive are those of the source. Rule as the data show it: active = GI50 up to about 1.1 µM and inactive = higher.
Outcome codes: active, inactive

compound="COC(=O)CCC12CCC(=O)C1[C@@H](C(=O)OC)C[C@H]2C(=O)OC (some centres not stated)" assigned_category=inactive
compound="CC1=CCCC(OC(N)=O)C1 (configuration not stated)" assigned_category=inactive
compound="Cc1c(/N=N/c2ccccc2)c(-c2ccccc2)n(C2OC(CO)C(O)C(O)C2O)c(=S)c1C#N (configuration not stated)" assigned_category=inactive
compound=[O-][N+]1=[N+]([O-])[C@@H](c2ccccc2)[C@H]1c1ccccc1 assigned_category=inactive
compound="COC(=O)C1C=CN(N(C)C)C2=C1C(=O)c1c(O)cccc1C2=O (configuration not stated)" assigned_category=active
compound="CC(C)C(Sc1nc(-c2ccccc2)c(-c2ccccc2)[nH]1)C(=O)NNC(=S)Nc1ccccc1 (configuration not stated)" assigned_category=inactive
compound=Cc1ccc2c(=O)cc(Cc3csc4ccccc34)[nH]c2n1 assigned_category=inactive

----------
- Test system: SK-MEL-2
- Test Name: NCI tumour cell line growth inhibition, 48 h
Calls of active or inactive are those of the source. Cut-off read from the data, not from the text of the source: active = GI50 up to about 1.1 µM and inactive = higher.
Endpoint Name: GI50

molecule=COc1ccc(/C=C(\Cl)c2ccc(OC)c(OC)c2)cc1OC experimental_result="> 100 µM (inactive)"
molecule=Cc1ccnc2c1ccc1nc3ccccc3n12 experimental_result="> 100 µM (inactive)"
molecule=CCOc1cc(/C=C2\N=C(c3ccccc3)N(c3nc4ccccc4s3)C2=O)ccc1O experimental_result="23.8 µM (inactive)"
molecule=CNC(=O)c1nn[nH]c1Sc1c([N+](=O)[O-])ncn1C experimental_result="> 100 µM (inactive)"
molecule="CC1(C)CCC[C@@]2(C)C1C[C@H](O)[C@@]1(C)O[C@@](C)([C@H](O)CO)CCC21 (stereo partly specified)" experimental_result="20.7 µM (inactive)"
molecule=COC(=O)NN=C1C(C)(C)C(=NNC(=O)OC)C1(C)C experimental_result="> 100 µM (inactive)"
molecule=Cc1cc(=O)oc2cc(OCc3nc4ccccc4c(=O)[nH]3)ccc12 experimental_result="> 100 µM (inactive)"
molecule=ClC(Cl)=C1C(=C(Cl)Cl)C(Cl)(Cl)C1(Cl)Cl experimental_result="1.29 µM (inactive)"
molecule="C=CC(O)(CBr)CCC(Br)C(C)(C)Cl (stereo unspecified)" experimental_result="> 10 µM (inactive)"
molecule="CC12CC(C#N)(C#N)C(C#N)(CO1)C(=N)O2 (stereo unspecified)" experimental_result="> 100 µM (inactive)"
molecule=CCc1n[nH]c(=O)n1NC(=O)/C=C\C(=O)O experimental_result="> 100 µM (inactive)"
